target-desc: MtbPRPPase (phosphoribosylpyrophosphate synthetase) (Mycobacterium tuberculosis, UniProt P9WKE3)
Construct: gene prs
Sequence (P9WKE3 whole entry): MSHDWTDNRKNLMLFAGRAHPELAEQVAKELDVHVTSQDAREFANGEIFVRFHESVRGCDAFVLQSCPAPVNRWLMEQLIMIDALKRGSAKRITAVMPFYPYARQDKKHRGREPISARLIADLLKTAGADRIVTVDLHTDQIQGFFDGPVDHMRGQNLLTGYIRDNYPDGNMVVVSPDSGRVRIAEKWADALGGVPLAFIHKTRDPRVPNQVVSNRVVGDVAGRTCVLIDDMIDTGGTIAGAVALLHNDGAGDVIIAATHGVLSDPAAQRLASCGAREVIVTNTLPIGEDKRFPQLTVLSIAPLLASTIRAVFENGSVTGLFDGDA
assay-protocol: biochemical
pIC50: −log10 of the molar value.
readout-label: pIC50

Reported pIC50 ( Nc1nc2c(ncn2[C@@H]2O[C@H](COP(=O)(O)OP(=O)(O)O)[C@@H](O)[C@H]2O)c(=O)[nH]1 [GDP] ) = < 2.30
